Measurement target: mouse ACVR2A (mouse, UniProt P27038 20-135, limits assumed); also: test concentration or dose not given here
Sequence (P27038 20-135 limits assumed): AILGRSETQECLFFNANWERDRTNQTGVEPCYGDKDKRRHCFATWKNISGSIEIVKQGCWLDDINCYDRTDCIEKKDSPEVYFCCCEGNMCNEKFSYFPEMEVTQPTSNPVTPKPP
Experimental protocol: ELISA
Property: optical density (OD)
Number in OD, nothing else.

>  <Binder>
369_D11 (antibody, V domains shown, VH/VL only) VH: EVQLLESGGGLVQPGGSLRLSCAASGFTFSSYGMHWVRQAPGKGLEWVASINYNGGYTSYADSVKGRFTISRDNSKNTLYLQMNSLRAEDTAVYYCARSATWHDTHLDYWGQGTLVTVSS VL: DIQMTQSPSSLSASVGDRVTITCRASQSILTYLNWYQQKPGKAPKLVIYAATSLASGVPSRFSGSGSGTDFTLTISSLQPEDFATYYCQQSDELPLTFGGGTKVEIK

>  <Unit>
OD

>  <optical density>
2.99

$$$$
>  <Binder>
365_C09 (antibody, V domains shown, VH/VL only) VH: EVQLLESGGGLVQPGGSLRLSCAASGFTFSDYGMNWVRQAPGKGLEWVSGINYNGGYKSYADSVKGRFTISRDNSKNTLYLQMNSLRAEDTAVYYCARSATWHDTHLDYWGQGTLVTVSS VL: DIQMTQSPSSLSASVGDRVTITCRASQSIVSYVNWYQQKPGKAPKLLIYAATSRASGVPSRFSGSGSGTDFTLTISSLQPEDFATYYCQQSYDTPLTFGGGTKVEIK

>  <Unit>
OD

>  <optical density>
2.18

$$$$
>  <Binder>
365_F07 (antibody, V domains shown, VH/VL only) VH: EVQLLESGGGLVQPGGSLRLSCAASGFTFSSYSMNWVRQAPGKGLEWVSNINYNGGYKSYADSVKGRFTISRDNSKNTLYLQMNSLRAEDTAVYYCARSATWHDTALDYWGQGTLVTVSS VL: DIQMTQSPSSLSASVGDRVTITCRASQSILSYVNWYQQKPGKAPKLVIYAATSRASGVPSRFSGSGSGTDFTLTISSLQPEDFATYYCQQSYDLPLTFGGGTKVEIK

>  <Unit>
OD

>  <optical density>
3.18

$$$$
>  <Binder>
367_F02 (antibody, V domains shown, VH/VL only) VH: EVQLLESGGGLVQPGGSLRLSCAASGFTFDSYSMNWVRQAPGKGLEWVANINYNGGYTSYADSVKGRFTISRDNSKNTLYLQMNSLRAEDTAVYYCARSATWHDTHLDYWGQGTLVTVSS VL: DIQMTQSPSSLSASVGDRVTITCRASQSIISYVNWYQQKPGKAPKLLIYAATSRHSGVPSRFSGSGSGTDFTLTISSLQPEDFATYYCQQSYESPLTFGGGTKVEIK

>  <Unit>
OD

>  <optical density>
2.27

$$$$

Now for the binder whose optical density we want.
Request: What value of measured optical density is listed for 366_A03 (antibody, V domains shown, VH/VL only) VH: EVQLLESGGGLVQPGGSLRLSCAASGFTFDSYSMNWVRQAPGKGLEWVAGINYNSGYKGYADSVKGRFTISRDNSKNTLYLQMNSLRAEDTAVYYCARSATWHDTHLDYWGQGTLVTVSS VL: DIQMTQSPSSLSASVGDRVTITCRASQSISSYLNWYQQKPGKAPKLLIYAATSLASGVPSRFSGSGSGTDFTLTISSLQPEDFATYYCQQSYSNPLTFGGGTKVEIK ?
Result: 1.12
